Data provenance is patent US12686690B2.

Target: hOX2R (Homo sapiens, UniProt O43614)
Sequence (O43614 1-444): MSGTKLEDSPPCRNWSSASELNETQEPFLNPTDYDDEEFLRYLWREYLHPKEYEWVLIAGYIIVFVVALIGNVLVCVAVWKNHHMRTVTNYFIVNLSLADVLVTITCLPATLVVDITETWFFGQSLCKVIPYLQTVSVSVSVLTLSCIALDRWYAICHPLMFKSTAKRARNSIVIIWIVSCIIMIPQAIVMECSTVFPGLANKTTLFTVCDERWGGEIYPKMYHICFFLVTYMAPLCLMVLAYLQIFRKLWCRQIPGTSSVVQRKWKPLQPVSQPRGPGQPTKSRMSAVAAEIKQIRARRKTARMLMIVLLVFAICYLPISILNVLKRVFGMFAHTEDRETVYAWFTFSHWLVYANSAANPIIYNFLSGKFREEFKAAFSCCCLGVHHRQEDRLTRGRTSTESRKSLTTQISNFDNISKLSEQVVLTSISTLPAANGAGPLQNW
Assay: hOX2R IPone assay (orexin receptor agonism)
Settings: orexin receptor agonist, IPone readout; read-out: hOX2R_IPone EC50
Please go through the items and note down their pEC50.
Please note pEC50 is a logarithmic value: minus log10 of concentration in mol/L. Answer with that number alone.

Prompt: Provide value of pEC50 for this record tested with hOX2R (Homo sapiens, UniProt O43614): CCCC1CCCCCOc2nc(cn3ccnc23)-c2cc(ncc2OC)[C@@H](C)N(CC)C(=O)N1 (single isomer, unassigned) [Example 54B]
Completion: 9.00

Prompt: Provide value of pEC50 for this record tested with hOX2R (Homo sapiens, UniProt O43614): CCN1C(=O)N[C@@H](CCC(F)(F)F)CCCCCOc2nc(cn3ccnc23)-c2cc(nc3ccoc23)C1C (single isomer, unassigned) [Example 74A]
Completion: 7.76

Prompt: Provide value of pEC50 for this record tested with hOX2R (Homo sapiens, UniProt O43614): CCN1C(=O)NC(CCC(F)(F)F)CCOCCOc2nc(cn3ccnc23)-c2cc(ncc2OC)[C@H]1C (single isomer, unassigned) [Example 6B]
Completion: 9.22

Prompt: Provide value of pEC50 for this record tested with hOX2R (Homo sapiens, UniProt O43614): C[C@@H]1c2cc(ccn2)-c2cn3ccnc3c(n2)OCCCCC[C@H](CCC(F)(F)F)NC(=O)N1C
Completion: 8.41

Prompt: Provide value of pEC50 for this record tested with hOX2R (Homo sapiens, UniProt O43614): CCN1C(=O)NC(CCC(F)(F)F)COCCCOc2nc(cn3ccnc23)-c2cc(ncc2OC)[C@H]1C (single isomer, unassigned) [Example 21A]
Completion: 7.71

Prompt: Provide value of pEC50 for this record tested with hOX2R (Homo sapiens, UniProt O43614): CCN1C(=O)N[C@@H](CCC(F)(F)F)CCCCOc2nc(cn3ccnc23)-c2cc(cnc2OC)[C@H]1C
Completion: 8.85

Prompt: Provide value of pEC50 for this record tested with hOX2R (Homo sapiens, UniProt O43614): CCN1C(=O)NC(CC2(C(F)(F)F)CC2)CCCCCOc2nc(cn3ccnc23)-c2cc(ncc2OC)[C@H]1C (single isomer, unassigned) [Example 66B]
Completion: 9.15

Prompt: Provide value of pEC50 for this record tested with hOX2R (Homo sapiens, UniProt O43614): CCN1C(=O)NCCNCCCOc2cn3ccnc3c(n2)-c2cccc(c2)[C@H]1C
Completion: 6.02

Prompt: Provide value of pEC50 for this record tested with hOX2R (Homo sapiens, UniProt O43614): CCN1C(=O)N[C@@H](CCC(F)(F)F)CCCCOc2nc(cn3ncnc23)-c2cc(ncc2OC)C1C(F)(F)F (single isomer, unassigned) [Example 34A]
Completion: 6.27
